These measurements were taken from PubChem BioAssay AID1996.

settings: buffer; pH 7.4; 200.0 µM
QUANTITY_MEASURED: solubility kinetic

Could you share which solubility kinetic value was measured for "N/C(=N\O)c1ccccc1-n1cccc1" ? > 30.2 µg/mL

Could you share which solubility kinetic value was measured for "CC(C)(C)NC(=O)COC(=O)CCC(=O)c1cccs1" ? > 44.6 µg/mL

Could you share which solubility kinetic value was measured for "COc1ccccc1OCCCOc1cccc(/C=C2\SC(=O)NC2=O)c1" ? < 0.8 µg/mL

Could you share which solubility kinetic value was measured for "COc1ccc(-c2nc(C)ncc2-c2ccc(Cl)cc2)c(O)c1" ? < 0.3 µg/mL

Could you share which solubility kinetic value was measured for "O=C(NCCCN1CCOCC1)C(=O)NCc1ccccc1" ? > 45.8 µg/mL

Could you share which solubility kinetic value was measured for O=C(Nc1ccc2c(c1)OCCO2)C1CC(O)CN1C(=O)Nc1ccccc1 (configuration not stated) ? > 57.5 µg/mL

Could you share which solubility kinetic value was measured for "Cc1c(C)n(C)c2ccc(C(=O)NCCN3CCOCC3)cc12" ? > 47.3 µg/mL

---

settings: buffer; pH 7.4; 200.0 µM
QUANTITY_MEASURED: solubility kinetic

Could you share which solubility kinetic value was measured for "S=c1[nH]nc(-c2cccc3ccccc23)n1-c1cccnc1" ? > 0.0457 mg/mL

Could you share which solubility kinetic value was measured for "Cc1cccc(C)c1NC(=S)NC(C)(C)CO" ? > 0.0379 mg/mL

Could you share which solubility kinetic value was measured for "Cc1cccc(NC(=O)N2C[C@H]3C[C@@H](C2)c2cccc(=O)n2C3)c1" ? > 0.0485 mg/mL

Could you share which solubility kinetic value was measured for "O=C(Nc1ccc(S(=O)(=O)Nc2ncccn2)cc1)C(F)(F)F" ? > 0.0519 mg/mL

Could you share which solubility kinetic value was measured for "CCOc1cc(C(=S)N2CCCC2)ccc1OC" ? > 0.0398 mg/mL

Could you share which solubility kinetic value was measured for "CCCC(=O)Nc1ccc(-c2cn3cccnc3n2)cc1" ? > 0.042 mg/mL

---

conditions: buffer; pH 7.4; 200.0 µM
Kindly state solubility kinetic for each of the entries shown.

Could you share which solubility kinetic value was measured for "Cc1cc(C(=O)COC(=O)C23CC4CC(CC(O)(C4)C2)C3)c(C)n1C" ? > 51.8 µg/mL

Could you share which solubility kinetic value was measured for "Cn1c(=O)c(=O)n(C)c2cc([N+](=O)[O-])c(N3CCOCC3)cc21" ? > 48 µg/mL

Could you share which solubility kinetic value was measured for COP(=O)(OC)C(Nc1ccccc1)c1ccccc1 (stereo unspecified) ? > 43.7 µg/mL

Could you share which solubility kinetic value was measured for "Cc1cc(C(=O)OCC(=O)N2CCOCC2)ccc1[N+](=O)[O-]" ? > 46.2 µg/mL

Could you share which solubility kinetic value was measured for "Cc1ccc(C)c(NC(=O)CN(C)C(=O)c2ccc(Cl)nc2)c1" ? > 49.8 µg/mL

Could you share which solubility kinetic value was measured for "COc1cccc(CN2CCN(C(=O)Cc3ccccc3OC)CC2)c1" ? > 53.2 µg/mL

Could you share which solubility kinetic value was measured for "C=CCNC(=S)Nc1ccc(N(C)C)cc1" ? > 35.3 µg/mL

Could you share which solubility kinetic value was measured for "O=C(NCC1CC1)Nc1cccs1" ? > 29.4 µg/mL

Could you share which solubility kinetic value was measured for "CC(C)(C)C(=O)N1CCN(c2ncccc2C(F)(F)F)CC1" ? > 47.3 µg/mL

Could you share which solubility kinetic value was measured for CC(=O)N1c2ccc(S(=O)(=O)N3CCCCC3)cc2CC1C (stereo unspecified) ? > 48.4 µg/mL

Could you share which solubility kinetic value was measured for "N#Cc1ccc(OCC(=O)NC2CCCCCC2)cc1" ? > 40.9 µg/mL

Could you share which solubility kinetic value was measured for "CCC1(CC)NC(=O)N(Cc2nc3ccccc3s2)C1=O" ? > 45.5 µg/mL

Could you share which solubility kinetic value was measured for "COC(=O)[C@H](Cc1ccccc1)NC(=O)N1CCCCC1" ? > 43.6 µg/mL

Could you share which solubility kinetic value was measured for "CCNC(=S)Nc1ccc(Cc2nc3ccccc3[nH]2)cc1" ? 36 µg/mL

Could you share which solubility kinetic value was measured for "COc1ccc(Cl)cc1NC(=O)CN(C)C(=O)C1CC1" ? > 44.5 µg/mL

Could you share which solubility kinetic value was measured for "CC(C)c1ccc([N+](=O)[O-])cc1S(=O)(=O)N1CCN(C)CC1" ? > 49.1 µg/mL

Could you share which solubility kinetic value was measured for "COc1ccc(CNc2ccc(N3CCOCC3)cc2)cc1" ? 40.9 µg/mL

Could you share which solubility kinetic value was measured for "CCCNC(=O)c1c(O)c2cccc3c2n(c1=O)CCC3" ? 0.5 µg/mL

Could you share which solubility kinetic value was measured for "O=C(Nc1ccccc1F)c1ccc2c(c1)OCO2" ? > 38.9 µg/mL

Could you share which solubility kinetic value was measured for "CCOc1nc2ccccc2nc1NS(=O)(=O)c1ccc(Cl)cc1" ? > 54.6 µg/mL

Could you share which solubility kinetic value was measured for "C=CCSC1=NN2CCS(=O)(=O)N=C2S1" ? > 39.5 µg/mL

Could you share which solubility kinetic value was measured for "Cc1ccc(OCC(=O)NCCCNC(=O)c2cccnc2)cc1" ? > 49.1 µg/mL

Could you share which solubility kinetic value was measured for "O=C(NC1CCN(C(=S)Nc2ccc(Cl)cc2)CC1)c1ccco1" ? > 54.6 µg/mL

Could you share which solubility kinetic value was measured for "O=C(OCc1csc(-c2ccccc2)n1)c1ccc(O)cc1" ? < 0.7 µg/mL

Could you share which solubility kinetic value was measured for COc1cc([N+](=O)[O-])ccc1N1C(=O)C2C3C=CC(C4CC34)C2C1=O (stereo unspecified) ? 7.2 µg/mL

Could you share which solubility kinetic value was measured for "CCOC(=O)CN1CCS(=O)(=O)CC1" ? > 33.2 µg/mL

Could you share which solubility kinetic value was measured for "CN(O)/C=N/C(=S)Nc1ccc(Cl)cc1Cl" ? 38.4 µg/mL

Could you share which solubility kinetic value was measured for "Cc1cccc(NCc2ccc(N(C)C)cc2)n1" ? 27.8 µg/mL

Could you share which solubility kinetic value was measured for CC(=O)NC(C)Cc1cn(Cc2ccccc2)c2ccccc12 (stereo unspecified) ? > 46 µg/mL

Could you share which solubility kinetic value was measured for "Cc1cc(C(=O)NCc2ccco2)c2ccccc2n1" ? > 39.9 µg/mL

Could you share which solubility kinetic value was measured for "O=C(COc1ccc(F)cc1)NCCNC(=O)COc1ccc(F)cc1" ? 11.2 µg/mL

---

details: buffer; pH 7.4; 200.0 µM
QUANTITY_MEASURED: solubility kinetic

Could you share which solubility kinetic value was measured for "O=C(CNC(=O)N1CC(=O)Nc2ccccc21)Nc1ccccc1" ? > 48.7 µg/mL

Could you share which solubility kinetic value was measured for "O=C(Nc1cccc(C(=O)O)c1)Nc1cccc2ccccc12" ? > 45.9 µg/mL

Could you share which solubility kinetic value was measured for "Cc1ccccc1OCCNC(=O)c1ccco1" ? > 36.8 µg/mL

---

details: buffer; pH 7.4; 200.0 µM
Kindly state solubility kinetic for each of the entries shown.

Could you share which solubility kinetic value was measured for "Cc1ccc(S(=O)(=O)NCC(=O)NC2CC2)cc1" ? > 40.2 µg/mL

Could you share which solubility kinetic value was measured for "Cc1cccc(N2C(=O)/C(=C/c3ccccn3)SC2=S)c1" ? < 0.3 µg/mL

Could you share which solubility kinetic value was measured for "Cc1c(Cl)cccc1NC(=O)Nc1cc(C(C)(C)C)on1" ? < 0.2 µg/mL

Could you share which solubility kinetic value was measured for "O=C(Nc1ccc(S(=O)(=O)N2CCc3ccccc32)cc1)C(F)(F)F" ? > 55.6 µg/mL

Could you share which solubility kinetic value was measured for CC1CN(C(=S)NC(=O)c2ccc(Cl)cc2)CC(C)O1 (stereo not given) ? > 46.9 µg/mL

---

conditions: buffer; pH 7.4; 200.0 µM
QUANTITY_MEASURED: solubility kinetic (µg/mL)
Report only the number, with the unit µg/mL understood.

Could you share which solubility kinetic value was measured for "O=C(N1CCOCC1)N1CCc2ccccc21" ? 34.8

Could you share which solubility kinetic value was measured for "COc1cccc(NC(=S)NC(=O)Cc2ccccc2)c1" ? 16

Could you share which solubility kinetic value was measured for "COc1cccc(-n2cnc3sc4c(c3c2=O)CCC4)c1" ? 5.9

Could you share which solubility kinetic value was measured for "Cc1cc(SCc2ccc(Br)cc2)nc(=O)[nH]1" ? 6

Could you share which solubility kinetic value was measured for O=C(NCCOc1ccc(Cl)cc1)C(=O)NCC1CCCO1 (configuration not stated) ? 33.6

Could you share which solubility kinetic value was measured for CCOC(=O)c1sc(NC(=O)C2CC(=O)N(c3ccc(OCC)cc3)C2)nc1C (configuration not stated) ? 9.9

Could you share which solubility kinetic value was measured for "O=c1oc(/C=C/c2ccccc2)nc2ccccc12" ? 0.7

Could you share which solubility kinetic value was measured for "O=C(Nc1ccc(F)cc1F)c1ccc2c(c1)OCCO2" ? 14

---

conditions: buffer; pH 7.4; 200.0 µM
QUANTITY_MEASURED: solubility kinetic

Could you share which solubility kinetic value was measured for "O=C(Cc1cccs1)NC1CCCC1" ? > 31.4 µg/mL

Could you share which solubility kinetic value was measured for "CC(C)c1ccc(NS(=O)(=O)c2cccc3cccnc23)cc1" ? < 0.3 µg/mL

Could you share which solubility kinetic value was measured for "CC(C)Nc1nc2nonc2nc1Nc1ccccc1" ? > 40.5 µg/mL

Could you share which solubility kinetic value was measured for "Cc1ccc(NC(=O)C(=O)NCCCN2CCCC2=O)c(C)c1" ? > 47.6 µg/mL
